# Lookup of reported MIC keyed by entry
tested on: Mycobacterium tuberculosis; experiment: Antimycobacterial activity against Mycobacterium tuberculosis H37Rv; type: functional
propertyMeasured: MIC (µg/mL)

# molecule, experimentalSystem, recordedMeasurement
measured = [
    ("NC(=O)c1cnccn1 [PYRAZINAMIDE]", "Mycobacterium tuberculosis", 25),
    ("N/C(=N\\NC(=S)N1CCCC1)c1cc(Sc2ccccc2)ccn1", "Mycobacterium tuberculosis", 6.25),
    ("N/C(=N\\NC(=S)N1CCN(c2ccccc2)CC1)c1cc(Sc2ccccc2)ccn1", "Mycobacterium tuberculosis", 25),
    ("N/C(=N\\NC(=S)N1CCCCC1)c1cc(Sc2ccccc2)ccn1", "Mycobacterium tuberculosis", 12.5),
    ("N/C(=N\\NC(=S)N1CCN(c2ccccc2)CC1)c1cc(Oc2ccccc2)ccn1", "Mycobacterium tuberculosis", 25),
    ("N/C(=N\\NC(=S)N1CCCCC1)c1cc(Oc2ccccc2)ccn1", "Mycobacterium tuberculosis", 12.5),
    ("N/C(=N\\NC(=S)N1CCCCC1)c1cc(N2CCN(c3ccccc3)CC2)ccn1", "Mycobacterium tuberculosis", 25),
]

* * *

system: Mycobacterium tuberculosis; test: Antimycobacterial activity against Mycobacterium tuberculosis H37Rv; format: functional
propertyMeasured: MIC (µg/mL)

# smilesEntry, recordedMeasurement
rows = [
    ("N/C(=N\\NC(=S)N1CCN(c2ccccc2)CC1)c1cc(N2CCCC2)ccn1", 6.25),
    ("NNC(=O)c1ccncc1", 3.1),
    ("N/C(=N\\NC(=S)N1CCCC1)c1cc(N2CCN(c3ccccc3)CC2)ccn1", 12.5),
    ("N/C(=N\\NC(=S)N1CCCC1)c1cc(N2CCOCC2)ccn1", 6.25),
    ("N/C(=N\\NC(=S)N1CCOCC1)c1cc(N2CCN(c3ccccc3)CC2)ccn1", 6.25),
    ("N/C(=N\\NC(=S)N1CCCC1)c1cc(N2CCCC2)ccn1", 6.25),
    ("N/C(=N\\NC(=S)N1CCCCC1)c1cc(N2CCOCC2)ccn1", 6.25),
    ("N/C(=N\\NC(=S)N1CCN(c2ccccc2)CC1)c1cc(N2CCOCC2)ccn1", 6.25),
    ("N/C(=N\\NC(=S)N1CCCCC1)c1cc(N2CCCC2)ccn1", 6.25),
    ("N/C(=N\\NC(=S)N1CCN(c2ccccc2)CC1)c1cc(N2CCN(c3ccccc3)CC2)ccn1", 25),
    ("N/C(=N\\NC(=S)N1CCOCC1)c1cc(N2CCOCC2)ccn1", 3.1),
]
